# assay.info: melting temperature; fluorescence melt of hairpins on a sequencing array, two-state fit, raised by 9.35 °C to match UV melts
# condition.info: sodium 0.088 M
In plain terms, low Tm, meaning strictly below 50 °C, gives Yes, and everything else gives No.

INSERT INTO results (sequence_entry, class_name) VALUES
  ('GAAACGCGAAAGCGGTTC (((.(((....))).)))', 'No'),
  ('GATCGAGTGCTCGATC ((((((....))))))', 'No'),
  ('GCCCTCGAAAGAGTCGGC ((((((....)))..)))', 'Yes'),
  ('GGTGCCGAAAGGCCGACC ((((((....)))..)))', 'Yes');

Attention now turns to another entry.
Request: Consider GATCTGGGAGCAGATC ((((((....)))))) . Does its Tm lie strictly below 50 °C?
Result: No
